# pIC50 listing for each entry below
target: USP7 (Homo sapiens); assay: Ub-Rho cleavage assay; format: biochemical; conditions: Ub-Rho substrate, recombinant USP7; read-out: Ub (Rho) USP7.1 (IC50)
pIC50: −log10 of the molar value.

- compound: "C[C@H](CC(=O)N1CCC(O)(Cn2cnc(NCCN3CCN(CCN=[N+]=[N-])CC3)cc2=O)CC1)c1ccccc1"
  pIC50: "> 6.00"
- compound: "CCC(=O)N1CCC(C(=O)Nc2nc3ccc(NS(=O)(=O)c4cccs4)cc3s2)C1 (stereo not drawn)"
  pIC50: "< 4.00"
- compound: "CN1CCCn2nc(C(=O)Nc3nc4ccc(NS(=O)(=O)c5nnc[nH]5)cc4s3)cc2C1"
  pIC50: "< 4.00"

* * *

molecular target: USP7 (Homo sapiens, UniProt Q93009); assay: Ub-Rho cleavage assay; assay type: biochemical; conditions: Ub-Rho substrate, recombinant USP7; read-out: Ub (Rho) USP7.1 (IC50)
Sequence (Q93009 whole entry): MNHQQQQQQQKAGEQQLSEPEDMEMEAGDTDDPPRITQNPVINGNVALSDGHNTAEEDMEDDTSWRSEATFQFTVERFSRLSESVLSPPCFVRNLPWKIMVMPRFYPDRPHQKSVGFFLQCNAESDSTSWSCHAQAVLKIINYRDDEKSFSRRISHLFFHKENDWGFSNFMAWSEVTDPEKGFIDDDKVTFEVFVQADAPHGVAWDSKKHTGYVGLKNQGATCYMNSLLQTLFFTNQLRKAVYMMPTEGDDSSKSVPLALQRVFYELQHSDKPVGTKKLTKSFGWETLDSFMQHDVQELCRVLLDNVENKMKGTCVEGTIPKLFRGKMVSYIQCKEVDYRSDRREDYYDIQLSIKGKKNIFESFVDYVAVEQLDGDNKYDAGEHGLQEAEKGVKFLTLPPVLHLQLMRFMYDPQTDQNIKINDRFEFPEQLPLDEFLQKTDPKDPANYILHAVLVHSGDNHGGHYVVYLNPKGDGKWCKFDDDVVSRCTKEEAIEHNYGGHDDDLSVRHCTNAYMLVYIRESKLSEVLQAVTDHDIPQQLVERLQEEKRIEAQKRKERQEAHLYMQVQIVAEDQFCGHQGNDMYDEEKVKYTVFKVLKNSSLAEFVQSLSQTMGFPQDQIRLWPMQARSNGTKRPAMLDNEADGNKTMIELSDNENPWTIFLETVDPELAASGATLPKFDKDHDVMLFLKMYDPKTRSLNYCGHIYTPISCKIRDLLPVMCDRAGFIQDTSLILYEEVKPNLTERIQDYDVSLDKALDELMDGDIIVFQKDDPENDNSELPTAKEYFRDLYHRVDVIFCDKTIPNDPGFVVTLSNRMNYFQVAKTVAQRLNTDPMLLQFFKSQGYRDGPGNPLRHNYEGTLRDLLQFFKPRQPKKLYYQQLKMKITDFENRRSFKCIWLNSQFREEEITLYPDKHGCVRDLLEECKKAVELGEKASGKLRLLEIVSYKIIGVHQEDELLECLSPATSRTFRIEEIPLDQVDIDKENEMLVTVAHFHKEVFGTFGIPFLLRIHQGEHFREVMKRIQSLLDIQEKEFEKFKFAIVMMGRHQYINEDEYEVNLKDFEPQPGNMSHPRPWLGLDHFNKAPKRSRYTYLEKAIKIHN
pIC50: −log10 of the molar value.

- compound: "C[C@H](CC(=O)N1CCC(O)(Cn2cnc3cc(C#CCN)ccc3c2=O)CC1)c1ccccc1 [U29]"
  pIC50: "< 4.00"
- compound: "NCc1cc(Nc2nc3ccc(NS(=O)(=O)c4cccs4)cc3s2)ncn1 [U83]"
  pIC50: "< 4.00"
- compound: "CCc1c(-c2ccc(C(=O)NCCCNC(=O)CCNC(=O)OC(C)(C)C)nc2)cnc(N)c1-c1ccc(O)cc1 [U53]"
  pIC50: "4.00 to 6.00"
- compound: "CCc1c(-c2ccc(C(=O)NCCCNC(=O)CCCCC(=O)OC(C)(C)C)nc2)cnc(N)c1-c1ccc(O)cc1 [U49]"
  pIC50: "4.00 to 6.00"
- compound: "CCc1c(-c2ccc(C(=O)NC)nc2)ccc(CNCCNC(=O)OC(C)(C)C)c1-c1ccc(O)cc1 [U43]"
  pIC50: "4.00 to 6.00"
- compound: "C[C@H](CC(=O)N1CCC(O)(Cn2cnc3c(-c4ccc(CNC(=O)CCCCNC(=O)OC(C)(C)C)cc4)n(C)nc3c2=O)CC1)c1ccccc1 [U131]"
  pIC50: "> 6.00"
- compound: "O=C(Nc1nc2ccc(NS(=O)(=O)c3cccs3)cc2s1)c1cc2n(n1)CCCN(C1CC1)C2 [U98]"
  pIC50: "4.00 to 6.00"
- compound: "CN1CCCn2nc(C(=O)Nc3nc4ccc(N(C)S(=O)(=O)c5cccs5)cc4s3)cc2C1 [U111]"
  pIC50: "< 4.00"
- compound: "C[C@H](CC(=O)N1CCC(O)(Cn2cnc3cc(N(C)CCN(C)CCCNC(=O)OC(C)(C)C)ccc3c2=O)CC1)c1ccccc1 [U5]"
  pIC50: "> 6.00"
- compound: "CCc1c(-c2ccc(C(=O)NC)nc2)cnc(CNC(=O)OC(C)(C)C)c1-c1ccc(O)cc1 [U47]"
  pIC50: "4.00 to 6.00"
- compound: "Cc1cc(Cl)cc(-c2ccnc3cc(CN4C(=O)CCC4=O)sc23)c1OC1CCN(CCCNC(=O)CCNC(=O)OC(C)(C)C)CC1 [U39]"
  pIC50: "> 6.00"
- compound: "CCc1c(-c2ccc(C(=O)NCCOCCOCCOCCNC(=O)OC(C)(C)C)nc2)ccc(N)c1C1=CC=C(O)CC1 [U44]"
  pIC50: "4.00 to 6.00"
- compound: "CN1CCC(C(=O)Nc2nc3ccc(NS(=O)(=O)c4cn5c(n4)CCC5)cc3s2)CC1 [U91]"
  pIC50: "< 4.00"
- compound: "NCc1ccc(Nc2nc3ccc(NS(=O)(=O)c4cccs4)cc3s2)nc1 [U87]"
  pIC50: "< 4.00"
- compound: "CN1CCCn2nc(C(=O)Nc3nc4ccc(NS(=O)(=O)c5cn6c(n5)CCC6)cc4s3)cc2C1 [U102]"
  pIC50: "< 4.00"
- compound: "CCc1c(-c2ccc3[nH]ncc3c2)c(C#N)nc(CNC(=O)OC(C)(C)C)c1-c1ccc(O)cc1 [U86]"
  pIC50: "4.00 to 6.00"
- compound: "CN1CCN(C(=O)Nc2nc3ccc(NS(=O)(=O)c4cccs4)cc3s2)CC1=O [U123]"
  pIC50: "< 4.00"
- compound: "CN1CCC(C(=O)Nc2nc3ccc(N(C)S(=O)(=O)c4cccs4)cc3s2)CC1 [U75]"
  pIC50: "< 4.00"
- compound: "CN1CCCn2nc(C(=O)Nc3nc4ccc(NS(=O)(=O)c5cccnc5)cc4s3)cc2C1 [U103]"
  pIC50: "< 4.00"
- compound: "CCc1c(-c2ccc3c(cnn3CCN)c2)cnc(CNC(=O)OC(C)(C)C)c1-c1ccc(O)cc1 [U82]"
  pIC50: "4.00 to 6.00"
- compound: "CCc1c(-c2ccc(O)cc2)cnc(C=O)c1-c1ccc(O)cc1 [U64]"
  pIC50: "4.00 to 6.00"

* * *

Target: USP7 (Homo sapiens, UniProt Q93009)
Experiment: Ub-Rho cleavage assay
Assay type: biochemical
Conditions: Ub-Rho substrate, recombinant USP7; read-out: Ub (Rho) USP7.1 (IC50)
Method: All fluorescence measurements were performed on a Molecular Devices FlexStation3 with excitation at 480 nm and emission 540 nm, PMT Gain: Medium, Flash Number: 10. […] Assay buffer for all measurements was 50 mM HEPES, 100 mM NaCl, 0.5 mM EDTA, 1 mM TCEP, 0.1 mg/ml BSA, 0.01% Tween-20, pH 7.8. […] Fluorescence was then measured. Percent response relative to DMSO controls was calculated in GraphPad or Scinamic, and the data was fitted to a non-linear regression to determine IC50 values.
pIC50: −log10 of the molar value.
Examples of compounds with documented pIC50 follow.
readoutType: pIC50

- compound: "C[C@H](CC(=O)N1CCC(O)(Cn2cnc(NCCN3CCN(CCN)CC3)cc2=O)CC1)c1ccccc1 [U37]"
  result: "> 6.00"
- compound: "Cc1cc(Cl)cc(-c2ccnc3cc(CN4C(=O)CCC4=O)sc23)c1OC1CCN(CCCNC(=O)OC(C)(C)C)CC1 [U9]"
  result: "> 6.00"
- compound: "CCOC(=O)NCc1ccc(-c2ccc3n[nH]cc3c2)c(CC)c1-c1ccc(O)cc1 [U78]"
  result: "4.00 to 6.00"
- compound: "CN1CCCn2nc(C(=O)Nc3nc4ccc(N(CCN)S(=O)(=O)c5cccs5)cc4s3)cc2C1 [U108]"
  result: "< 4.00"
- compound: "CN1CCC(C(=O)Nc2nc3ccc(NS(=O)(=O)c4ccc5c(c4)CC(=O)N5C)cc3s2)CC1 [U72]"
  result: "< 4.00"
- compound: "Cc1cc(Cl)cc(-c2ccnc3cc(CN4C(=O)CCC4=O)sc23)c1OC1CCN(C(=O)CN=[N+]=[N-])CC1 [U19]"
  result: "> 6.00"
- compound: "Cc1cc(Cl)cc(-c2ccnc3cc(CN4C(=O)CCC4=O)sc23)c1OC1CCN(C(=O)CCOCCOCCNC(=O)OC(C)(C)C)CC1 [U33]"
  result: "4.00 to 6.00"
- compound: "Cc1cc(Cl)cc(-c2ccnc3cc(CN4C(=O)CCC4=O)sc23)c1OC1CCN(CCCCCCCNC(=O)OC(C)(C)C)CC1 [U30]"
  result: "> 6.00"
- compound: "NC1CCn2nc(C(=O)Nc3nc4ccc(NS(=O)(=O)c5cccs5)cc4s3)cc2C1 (stereo not shown) [U112]"
  result: "< 4.00"
- compound: "CN1CCCn2nc(C(=O)Nc3nc4ccc(NS(=O)(=O)c5cn6ccccc6n5)cc4s3)cc2C1 [U110]"
  result: "< 4.00"
- compound: "CCc1c(-c2ccc(C(=O)NCCCNC(=O)CCCCNC(=O)OC(C)(C)C)nc2)cnc(N)c1-c1ccc(O)cc1 [U45]"
  result: "4.00 to 6.00"
- compound: "C[C@H](CC(=O)N1CCC(O)(Cn2cnc3cc(Cl)ccc3c2=O)CC1)c1ccccc1 [U4]"
  result: "4.00 to 6.00"
- compound: "CCc1c(-c2ccc(C(=O)NCCCNC(=O)CCOCCOCCOCCNC(=O)OC(C)(C)C)nc2)cnc(N)c1-c1ccc(O)cc1 [U57]"
  result: "4.00 to 6.00"
